Measured glycan array binding signal (z-score), listed per entry.
- TARGET_SYSTEM: Glc(a1-6)Glc(a1-6)Glc
- PROTOCOL: glycan array binding signal (z-score within array); higher = stronger binding
- CONDITION_NOTES: glycan notation: IUPAC condensed, linker removed
Many of the other results were omitted from the sample, so the strongest signals are more common in it than they were.
REPORTED_ENDPOINT: glycan array binding signal (z-score)

# BINDER, VALUE_MEASURED
rows = [
    ("Tectonin 2 (Laccaria bicolor) (protein) MPWKGISGSLSRISAGSVTNVWGVNAANNIYRYTGDDAKPWVQIPGALTDIGAAADGTVWGVNAAGNIYRYVWDSNHWTQIKGALKRISAGSRTNVWGVNAGGAIYRYTGDDANPWVQIPGVLSDIGAGADGTVWGVNAAGEIYRYTGDQGDPNHWVKIPGALSAISAGIKTNVWGVNSANNIYTSTGDDKNPWLGIGGSLVDIGAGTDGVVWGVNAGGGIYRWIRD", -0.136),
    ("Codakine (Codakia orbicularis), Q3KVL7_9BIVA (protein) MKILVAVFLVLVVVGTAAAGCPDGWTQFLDLCYIYQSAKASWASAQSSCQALGGILAEPDTACENEVLIHMCRENGDAGSFGPWLGGQKVGGAWQWSSSGAAFDYLRWGPNEPNNSGGNEDCLHYNWLSWNDLRCHYQASYLCQRAAE", -0.317),
    ("TIM1 (protein) ADGIQSVKVGGEAGPSVTLPCHYSGAVTSMCWNRGSCSLFTCQNGIVWTNGTHVTYRKDTRYKLLGDLSRRDVSLTIENTAVSDSGVYCCRVEHRGWFNDMKITVSLEIVPPHHHHHH", -0.212),
    ("OS9 (Arabidopsis thaliana) (protein) MRGSHHHHHHGMASMTGGQQMGRDLYDDDDKSRLQIFPAHLVGTFSRNNREPKYKIEFLPEDSPFHPGDNLESMVMLDKHGNRFLCYLPKEEKATSGWTSSQQNISTVMMETQQLVKLKTPDELLQPLSEKCLFRQEGWWSYEFCHQKYVRQLHVEDENKIVQEFFLGTFDPEATAAFNQTVSDASTDASQRYHSHVYTNGTTCDLTGSPREVEVRFVCAETRAMVTSITELSTCKYALTVQCPTLCKHPLFQLEKPVSHTIHCNAIPVEEDATRNKEEQAVDESPKMIADS", -0.542),
]
